Give IC50 for every item shown.
Tested on: Hepatoma cell line HepG2
Assay: CellTiter-Blue cell proliferation and viability assay, HepG2
Assay type: cell-based
Conditions: Homo sapiens; HepG2, 1% FCS, 72 hours; read-out: IC50 of agent as single agent

{"Compound": "CC[C@]1(O)C[C@H]2CN(CCc3c([nH]c4ccccc34)[C@@](C(=O)OC)(c3cc4c(cc3OC)N(C=O)[C@H]3[C@@](O)(C(=O)OC)[C@H](OC(C)=O)[C@]5(CC)C=CCN6CC[C@]43[C@@H]65)C2)C1 [VINC]", "Result": "100 to 1000 nM"}
{"Compound": "Nc1ccn([C@@H]2O[C@H](CO)[C@@H](O)C2(F)F)c(=O)n1 [GCB, 2′,2′,-dofluoro-2′,-deoxycytidine]", "Result": "> 100000 nM"}

Then there is this compound:
# value lookup — system Hepatoma cell line HepG2, readout IC50, item Cc1ccc(NC(=O)c2ccc(CN3CCN(C)CC3)cc2)cc1Nc1nc(-c2cccnc2)cs1 [masitinib mesilate] > 5000 nM

----------
Give IC50 for every item shown.
Tested on: Hepatoma cell line PLC-PRF5
Assay: CellTiter-Blue cell proliferation and viability assay, PLC-PRF5
Type: cell-based
Settings: Homo sapiens, PLC-PRF-5; PLC-PRF5, 1% FCS, 72 hours; read-out: IC50 of agent as single agent

Before answering, review these 3 worked examples.
{"Compound": "COc1cc([C@@H]2c3cc4c(cc3[C@@H](O[C@@H]3O[C@@H]5CO[C@@H](C)O[C@H]5[C@H](O)[C@H]3O)[C@H]3COC(=O)[C@H]23)OCO4)cc(OC)c1O", "Result": "50 µM"}
{"Compound": "Cc1ccc(NC(=O)c2ccc(CN3CCN(C)CC3)cc2)cc1Nc1nc(-c2cccnc2)cs1 [masitinib mesilate]", "Result": "> 5 µM"}
{"Compound": "CCc1c2c(nc3ccc(OC(=O)N4CCC(N5CCCCC5)CC4)cc13)-c1cc3c(c(=O)n1C2)COC(=O)[C@]3(O)CC", "Result": "100 µM"}

Then there is this compound:
Field request: IC50 | item: `CC[C@]1(O)C[C@H]2CN(CCc3c([nH]c4ccccc34)[C@@](C(=O)OC)(c3cc4c(cc3OC)N(C=O)[C@H]3[C@@](O)(C(=O)OC)[C@H](OC(C)=O)[C@]5(CC)C=CCN6CC[C@]43[C@@H]65)C2)C1` 0.1 to 1 µM

Cited source: patent US20160128999A1
